Quick record of IC50 values for h-11βHSD1 (Homo sapiens, UniProt P28845).

# Compound, IC50
rows = [
    ("CN(C(=O)C1CC1)C1CCN(c2ccc(C(=O)N3CC4CCC(CC4)C3)cc2)C1 (stereo not drawn)", "128 nM"),
    ("CC1(C)CC2CC(C)(CN2C(=O)c2ccc(N3CCC(C(=O)NC4CCC(O)CC4)C3)cc2)C1 (stereo not drawn)", "125 nM"),
    ("CN(C1CCN(c2ccc(C(=O)N3CC4CCC(CC4)C3)cc2)C1)S(=O)(=O)Cc1ccccc1 (stereo not drawn)", "43 nM"),
]
